# Study system: TLR7 (Homo sapiens)
# Sequence (Q9NYK1 27-1049): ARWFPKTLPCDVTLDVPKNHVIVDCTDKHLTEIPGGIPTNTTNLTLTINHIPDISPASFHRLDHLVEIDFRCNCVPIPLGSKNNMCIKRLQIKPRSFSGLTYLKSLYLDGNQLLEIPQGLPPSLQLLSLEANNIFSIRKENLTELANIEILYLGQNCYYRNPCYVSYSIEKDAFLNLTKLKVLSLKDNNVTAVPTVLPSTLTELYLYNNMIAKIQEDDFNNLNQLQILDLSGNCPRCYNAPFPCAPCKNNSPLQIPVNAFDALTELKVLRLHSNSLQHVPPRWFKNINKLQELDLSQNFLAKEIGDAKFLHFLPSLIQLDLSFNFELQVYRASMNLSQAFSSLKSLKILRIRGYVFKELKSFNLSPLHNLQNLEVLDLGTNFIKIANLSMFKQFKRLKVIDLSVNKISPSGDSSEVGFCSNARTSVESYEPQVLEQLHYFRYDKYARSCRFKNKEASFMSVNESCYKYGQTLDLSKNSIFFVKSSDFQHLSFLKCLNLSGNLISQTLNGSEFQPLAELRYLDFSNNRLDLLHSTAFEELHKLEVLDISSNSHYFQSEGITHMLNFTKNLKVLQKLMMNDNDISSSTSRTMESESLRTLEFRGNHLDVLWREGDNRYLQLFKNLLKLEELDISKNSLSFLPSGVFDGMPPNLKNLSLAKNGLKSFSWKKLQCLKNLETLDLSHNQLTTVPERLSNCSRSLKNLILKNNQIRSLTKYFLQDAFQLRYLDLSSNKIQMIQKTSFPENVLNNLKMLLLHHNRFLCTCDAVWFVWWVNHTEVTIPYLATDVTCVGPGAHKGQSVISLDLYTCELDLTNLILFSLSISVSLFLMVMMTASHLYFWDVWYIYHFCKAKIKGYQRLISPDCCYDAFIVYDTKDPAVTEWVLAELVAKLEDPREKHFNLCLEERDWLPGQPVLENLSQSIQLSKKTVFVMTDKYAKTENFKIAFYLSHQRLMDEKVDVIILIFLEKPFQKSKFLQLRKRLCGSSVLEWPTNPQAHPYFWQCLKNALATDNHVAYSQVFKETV
# Assay protocol: Cell activity assay of TLR7 (HEK-BLUE-hTLR7, SEAP reporter, Quanti-Blue)
# Condition summary: HEK-BLUE-hTLR7 cells, 24 hours
pEC50: −log10 of the molar value.
Metric: pEC50

> print(dat)
                               input.smiles         study.system  metric  reading
1  CCCN(CCO)C(=O)C1=Cc2ccc(C(=O)Nc3cnc4c(c3)CNCC4)cc2N=C(N)C1  TLR7 (Homo sapiens)   pEC50   < 5.70

###

# Study system: TLR8 (Homo sapiens)
# Sequence (Q9NR97 27-1041): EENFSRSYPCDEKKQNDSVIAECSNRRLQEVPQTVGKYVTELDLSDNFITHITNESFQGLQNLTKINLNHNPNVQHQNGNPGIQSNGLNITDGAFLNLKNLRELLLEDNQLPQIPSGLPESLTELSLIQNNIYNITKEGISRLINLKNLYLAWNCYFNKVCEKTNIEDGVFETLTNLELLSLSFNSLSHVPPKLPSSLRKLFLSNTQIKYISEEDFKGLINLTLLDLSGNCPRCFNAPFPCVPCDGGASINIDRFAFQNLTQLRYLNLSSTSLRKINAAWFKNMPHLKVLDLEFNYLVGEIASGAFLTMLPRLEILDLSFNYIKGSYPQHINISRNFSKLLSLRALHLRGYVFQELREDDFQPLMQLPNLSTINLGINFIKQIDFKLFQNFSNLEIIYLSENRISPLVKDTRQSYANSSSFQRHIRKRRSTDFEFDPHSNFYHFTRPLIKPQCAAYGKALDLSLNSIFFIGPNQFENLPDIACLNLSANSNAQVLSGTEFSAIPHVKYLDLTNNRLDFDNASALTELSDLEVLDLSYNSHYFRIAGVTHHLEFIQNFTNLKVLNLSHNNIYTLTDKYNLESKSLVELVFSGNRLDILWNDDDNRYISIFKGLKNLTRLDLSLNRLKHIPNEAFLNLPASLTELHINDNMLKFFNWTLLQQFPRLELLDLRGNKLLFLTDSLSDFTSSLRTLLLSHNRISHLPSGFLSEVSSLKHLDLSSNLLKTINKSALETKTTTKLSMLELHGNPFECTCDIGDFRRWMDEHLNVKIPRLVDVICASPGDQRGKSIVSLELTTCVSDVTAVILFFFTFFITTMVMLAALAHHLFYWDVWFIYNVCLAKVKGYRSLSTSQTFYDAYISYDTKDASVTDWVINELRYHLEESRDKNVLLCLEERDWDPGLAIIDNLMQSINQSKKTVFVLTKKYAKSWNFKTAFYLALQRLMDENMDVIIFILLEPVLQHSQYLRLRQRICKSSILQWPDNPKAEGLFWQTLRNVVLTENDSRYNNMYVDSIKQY
# Assay protocol: Cell activity assay of TLR8 (HEK-BLUE-hTLR8, SEAP reporter, Quanti-Blue)
# Condition summary: HEK-BLUE-hTLR8 cells, 24 hours
Reported EC50 is given for each of the following molecules.
Metric: EC50

> print(dat)
                               input.smiles         study.system         reading
1  CCCN(CCC)C(=O)C1=Cc2c(F)cc(C3(C(=O)Nc4cnc5c(c4)CNCC5)CC3)cc2N=C(N)C1  TLR8 (Homo sapiens)        < 100 nM
2  CCCN(CCC)C(=O)C1=Cc2ccc(C(=O)Nc3cnc4c(c3)CNCC4)nc2N=C(N)C1  TLR8 (Homo sapiens)  250 to 1000 nM
3  CCCN(CCO)C(=O)C1=Cc2ccc(C3(C(=O)Nc4cncc(CN)c4)CC3)cc2N=C(N)C1  TLR8 (Homo sapiens)   100 to 250 nM
4  CCCN(CCO)C(=O)C1=Cc2ccc(C(=O)Nc3cnc4c(c3)CNCC4)cc2N=C(N)C1  TLR8 (Homo sapiens)  250 to 1000 nM
5  CCCN(CCC)C(=O)C1=Cc2ccc(C3(C(=O)Nc4cnc5c(c4)CNCC5)CC3)cc2N=C(N)C1  TLR8 (Homo sapiens)   100 to 250 nM

The origin of these recorded values is patent US20240299572A1.
